Taken from ChEMBL document CHEMBL1201862.

# System: HCC 2998
# EXPERIMENT: NCI tumour cell line growth inhibition, 48 h
Calls of active or inactive are those of the source. Rule as the data show it: active = GI50 up to about 1.1 µM and inactive = higher.
Answer with one of the outcomes given here: active, inactive

Can you look up the reported call for O=C(O)C(Cc1c[nH]c2ccccc12)N1C(=O)c2ccccc2C1=O (configuration not stated) for me? inactive

Can you look up the reported call for `CCOC(=O)CNC1=NNS(=O)(=O)c2ccccc21` for me? inactive

Can you look up the reported call for `CCN(CCCl)CCNc1c2ccccc2nc2ccc(OC)cc12` for me? active

Can you look up the reported call for `O=c1oc2cc(O)ccc2c2[nH]c3cc(O)ccc3c12` for me? inactive

Can you look up the reported call for O=C1CCC(Cl)=CC2CCCN12 (configuration not stated) for me? inactive
